Value source: ChEMBL document CHEMBL3507680

# ASSAY_TEXT: Human HepG2 cell viability assay in 384 well format
# Assay type: toxicity, cell-based
# Set-up: dose 125 nL, time 70.5 hour; concentration not given beside the values
# MEASUREMENT_CONTEXT: HepG2 cells, read-out: Inhibition
EXPERIMENTAL_READOUT: cytotoxicity at 70.5 h (%)
Numbers only, in %.

// known answers, use as guide
COMPOUND | cytotoxicity at 70.5 h / %
O=C1Nc2ccccc2/C1=C1\CCCCN1 | -10.3
CCN(C)C(=O)c1ncn2c(C3CCN(S(C)(=O)=O)CC3)ccnc12 | -5.47
C[C@@H]1C[C@H]2CN(S(=O)(=O)c3ccc(F)cc3)C[C@H]2O1 | -4.41
CC(C)c1nc(C2CCCN2c2ncc(C(N)=O)cc2Cl)no1 (centres undefined) | 12.4
COCc1cnc2n1CCN(C(=O)c1cn(C)c3ccccc13)C2C (centres undefined) | -5.93

I need cytotoxicity at 70.5 h for every entry listed below, if you could help.
1. Fc1cccc(-c2nc(CN3CCCC3Cn3cccn3)co2)c1 (centres undefined)
2. CCn1nc(C)cc1S(=O)(=O)N1CCC2(CC(=O)NC2=O)C1 (centres undefined)

Reply text:
[15.8, -5.01]
